# measurementTarget: MAP1LC3A, Q9H492
# assay: median log2 fold change of GCK-ALFA target abundance (FLAG IP / Myc IP barcode read proportion) (log2 ratio); each designed protein is fused to an ALFA-tag nanobody in HEK293 cells to bring the named protein to FLAG-tagged glucokinase (GCK); Myc marks an untargeted standard; higher = target protein stabilised (more abundant)
# measurementParameters: target protein: 3xFLAG-MCP-GCK-ALFA reporter; HEK293 landing pad (RPLP)
Whole data set: some 2,300 sequences, median “median log2 fold change of GCK-ALFA target abundance (FLAG IP / Myc IP barcode read proportion)” near 0.095, cut for the lowest 2% near -0.47. The sample as a whole holds a higher share of the lowest values than the screen did.
# median log2 fold change listing for each entry below

Exercise: Dear colleague, I am looking for the recorded median log2 fold change of the following binder: LC3A_17_544 (protein) MEELKKELEKLLKKLEELVKELEKYDPEKAKKLKKQLEEAKKLIKAGKLREAAELLAKAAREAADAFEKLEPKYGTKASVLAMEASGLELEAIRILLKLE
Key: 0.0592

Exercise: Would you kindly share the measured median log2 fold change for LC3A_3_1412 (protein) LEERREALLAELRAAGWSEETLAAVEELLEALLARGAEEEAERALELLRAARDLPSERLLEVVEEALRALREEGLSPEEVIALLEELLRVARAEQEIEEL ?
Key: 0.243
